Each entry below lists one item and its recorded MIC P. aeruginosa PA14 value.
- Tested on: P. aeruginosa PA14
- Experimental parameters: PA14, pH 8.5
Where a SMILES comes first, the peptide text is derived from it. [ ]: non-standard residue; d: D form. Nleu = CC(C)CNCC(=O)O; Nlys = NCCCCNCC(=O)O
Parameter measured: MIC P. aeruginosa PA14

* CC(C)C[C@H](NC(=O)[C@H](CC(C)C)NC(=O)[C@H](CC(C)C)NC(=O)[C@H](CCCCN)NC(=O)[C@H](CC(C)C)NC(=O)[C@H](CC(C)C)NC(=O)CN(CCCCN)C(=O)CN(CC(C)C)C(=O)CN(CC(C)C)C(=O)CN(CCCCN)C(=O)CNCCCCN)C(N)=O [EB5, kkllkLLKLLL] (H-[Nlys][Nlys][Nleu][Nleu][Nlys]LLKLLL-NH2) | 2 µg/mL
* CC(C)C[C@H](NC(=O)CN(CCCCN)C(=O)[C@H](CC(C)C)NC(=O)[C@H](CC(C)C)NC(=O)[C@H](CCCCN)NC(=O)[C@H](CC(C)C)NC(=O)[C@H](CC(C)C)NC(=O)[C@H](CCCCN)NC(=O)CNCCCCN)C(=O)N[C@@H](CC(C)C)C(=O)N(CC(N)=O)CC(C)C [EB2, kKLLKLLkLLl] (H-[Nlys]KLLKLL[Nlys]LL[Nleu]-NH2) | 2 to 4 µg/mL
* CC(C)C[C@H](NC(=O)[C@H](CC(C)C)NC(=O)[C@H](CC(C)C)NC(=O)[C@H](CCCCN)NC(=O)[C@H](CC(C)C)NC(=O)[C@H](CC(C)C)NC(=O)CN(CCCCN)C(=O)[C@H](CC(C)C)NC(=O)[C@H](CC(C)C)NC(=O)CN(CCCCN)C(=O)CNCCCCN)C(N)=O [EB6, kkLLkLLKLLL] (H-[Nlys][Nlys]LL[Nlys]LLKLLL-NH2) | 2 µg/mL
* CC(C)C[C@H](NC(=O)[C@H](CCCCN)NC(=O)CNCCCCN)C(=O)N[C@@H](CC(C)C)C(=O)N[C@@H](CCCCN)C(=O)N[C@@H](CC(C)C)C(=O)N[C@@H](CC(C)C)C(=O)N[C@@H](CCCCN)C(=O)N[C@@H](CC(C)C)C(=O)N[C@@H](CC(C)C)C(=O)N(CC(N)=O)CC(C)C [EB1] (H-[Nlys]KLLKLLKLL[Nleu]-NH2; N-terminus assumed) | 2 µg/mL

###

- System: S. aureus Newman
- Experimental parameters: Table S3; […] MH at pH 8.5
Where a SMILES comes first, the peptide text is derived from it. [ ]: non-standard residue; d: D form. Nleu = CC(C)CNCC(=O)O; Nlys = NCCCCNCC(=O)O
Parameter measured: MIC S. aureus Newman (mg/L)

* CC(C)C[C@H](NC(=O)CN(CC(C)C)C(=O)[C@H](CC(C)C)NC(=O)CN(CCCCN)C(=O)[C@H](CC(C)C)NC(=O)CN(CC(C)C)C(=O)[C@H](CCCCN)NC(=O)CN(CC(C)C)C(=O)[C@H](CC(C)C)NC(=O)CN(CCCCN)C(=O)[C@@H](N)CCCCN)C(N)=O [EB9, KkLlKlLkLlL] (H-K[Nlys]L[Nleu]K[Nleu]L[Nlys]L[Nleu]L-NH2) | 4
* CC(C)C[C@H](NC(=O)[C@H](CCCCN)NC(=O)[C@@H](N)CCCCN)C(=O)N[C@@H](CC(C)C)C(=O)N[C@@H](CCCCN)C(=O)N(CC(=O)N(CC(=O)N(CCCCN)CC(=O)N(CC(=O)N(CC(=O)N(CC(N)=O)CC(C)C)CC(C)C)CC(C)C)CC(C)C)CC(C)C [EB4, KKLLKllklll] (H-KKLLK[Nleu][Nleu][Nlys][Nleu][Nleu][Nleu]-NH2) | 8
* CC(C)C[C@H](NC(=O)[C@H](CC(C)C)NC(=O)[C@H](CCCCN)NC(=O)[C@@H](N)CCCCN)C(=O)N[C@@H](CCCCN)C(=O)N[C@@H](CC(C)C)C(=O)N[C@@H](CC(C)C)C(=O)N[C@@H](CCCCN)C(=O)N(CC(=O)N(CC(=O)N(CC(N)=O)CC(C)C)CC(C)C)CC(C)C [EB3] (H-KKLLKLLK[Nleu][Nleu][Nleu]-NH2) | 4
